Reported FACS reading values follow for various binders
Target: T1, Claudin 18.2 (CLDN18.2), expressed on CHOS-CLDN 18.2 / HEK293-CLDN 18.2 / HCC827-CLDN 18.2 cells (human, UniProt P56856-2 1-261)
T1 construct: whole, on cells; The species is not repeated for the CHOS-CLDN 18.2 cells; also called claudin-18A2
Assay: FACS, CHOS-CLDN18.2 cells, 0 µg/ml (background)
Write no unit; give the number alone.

Q: Hello, please tell me recorded FACS reading for this one: QP190191 (antibody, human IgG1, V domains shown, Chimeric; also called 36A2; mouse-derived chimeric antibody QP190191) VH: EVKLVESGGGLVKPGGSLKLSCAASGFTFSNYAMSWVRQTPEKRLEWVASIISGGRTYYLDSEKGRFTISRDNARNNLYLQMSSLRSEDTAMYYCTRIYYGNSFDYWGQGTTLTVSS VL: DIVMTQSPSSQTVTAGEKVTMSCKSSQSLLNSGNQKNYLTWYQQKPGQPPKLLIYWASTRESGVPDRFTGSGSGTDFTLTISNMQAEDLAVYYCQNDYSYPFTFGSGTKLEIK
Ans: 729

Q: Hello, please tell me recorded FACS reading for this one: QP024025 (antibody, human IgG1, V domains shown, also called IMAB362; 175D10(IMAB362)) VH: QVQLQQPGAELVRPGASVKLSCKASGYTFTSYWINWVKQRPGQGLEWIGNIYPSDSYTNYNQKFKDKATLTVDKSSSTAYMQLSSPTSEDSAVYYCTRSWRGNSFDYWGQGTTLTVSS VL: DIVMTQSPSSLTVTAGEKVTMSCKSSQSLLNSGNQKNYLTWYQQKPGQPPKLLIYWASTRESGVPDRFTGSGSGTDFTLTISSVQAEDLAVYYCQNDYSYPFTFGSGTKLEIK
Ans: 732

Q: Hello, please tell me recorded FACS reading for this one: QP14361435 (antibody, human IgG1, kappa, V domains shown, Humanized from QP190191) VH: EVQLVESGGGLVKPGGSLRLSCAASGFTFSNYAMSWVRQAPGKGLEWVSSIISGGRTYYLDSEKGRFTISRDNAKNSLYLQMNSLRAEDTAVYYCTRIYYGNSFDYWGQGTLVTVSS VL: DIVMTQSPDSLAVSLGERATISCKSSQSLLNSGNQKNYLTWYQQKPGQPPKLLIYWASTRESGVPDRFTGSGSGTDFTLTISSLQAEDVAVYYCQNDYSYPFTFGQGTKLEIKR
Ans: 713

Next binder, please.
Q: Hello, please tell me recorded FACS reading for this one: QP14371433 (antibody, human IgG1, kappa, V domains shown, Humanized from QP190191; also called QP14331437) VH: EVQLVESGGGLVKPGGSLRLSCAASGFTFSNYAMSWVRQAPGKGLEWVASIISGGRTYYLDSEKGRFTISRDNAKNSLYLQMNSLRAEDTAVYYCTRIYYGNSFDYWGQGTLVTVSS VL: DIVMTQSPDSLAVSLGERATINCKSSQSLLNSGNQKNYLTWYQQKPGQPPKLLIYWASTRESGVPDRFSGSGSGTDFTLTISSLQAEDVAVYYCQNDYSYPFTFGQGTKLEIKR
Ans: 754
